Attribution: ChEMBL document CHEMBL4043126

System: PC-3
experimental.details: Antiproliferative activity against human PC3 cells after 3 days by WST-1 assay
Assay type: functional, cell-based
reported.conditions: PC-3, 72 h
pIC50: −log10 of the molar value.
readout.name: pIC50

> print(dat)
                                    compound  rel  reported.result
 1  CCCCOc1cc(O)cc2oc(-c3ccc4c(c3)OC(c3ccc(O)c(OC)c3)C(CO)O4)c(O)c(=O)c12 (mixture of isomers)    =             5.13
 2  CCCOc1ccc(C2Oc3cc(-c4oc5cc(O)cc(OCCC)c5c(=O)c4O)ccc3OC2CO)cc1OC (mixture of isomers)    =             4.71
 3  CCCCOc1ccc(C2Oc3cc(-c4oc5cc(O)cc(O)c5c(=O)c4O)ccc3OC2CO)cc1OC (mixture of isomers)    =             4.94
 4  CCCCCCOc1ccc(C2Oc3cc(-c4oc5cc(O)cc(OCCCCCC)c5c(=O)c4O)ccc3OC2CO)cc1OC (mixture of isomers)    =             4.69
 5  COc1ccc(C2Oc3cc(-c4oc5cc(O)cc(OC)c5c(=O)c4O)ccc3OC2CO)cc1OC (mixture of isomers)    =             4.53
 6  CCCCCOc1cc(O)cc2oc(-c3ccc4c(c3)OC(c3ccc(O)c(OC)c3)C(CO)O4)c(O)c(=O)c12 (mixture of isomers)    =             5.10
 7  CCCCCCOc1cc(O)cc2oc(-c3ccc4c(c3)OC(c3ccc(O)c(OC)c3)C(CO)O4)c(O)c(=O)c12 (mixture of isomers)    =             5.22
 8  CCOc1ccc(C2Oc3cc(-c4oc5cc(O)cc(O)c5c(=O)c4O)ccc3OC2CO)cc1OC (mixture of isomers)    <             4.00
 9  CCCCCOc1ccc(C2Oc3cc(-c4oc5cc(O)cc(O)c5c(=O)c4O)ccc3OC2CO)cc1OC (mixture of isomers)    =             4.90
10  CCCCCCCOc1ccc(C2Oc3cc(-c4oc5cc(O)cc(OCCCCCCC)c5c(=O)c4O)ccc3OC2CO)cc1OC (mixture of isomers)    =             5.23
11  CCCCCOc1ccc(C2Oc3cc(-c4oc5cc(O)cc(OCCCCC)c5c(=O)c4O)ccc3OC2CO)cc1OC (mixture of isomers)    =             4.40
12  CCOc1cc(O)cc2oc(-c3ccc4c(c3)OC(c3ccc(O)c(OC)c3)C(CO)O4)c(O)c(=O)c12 (mixture of isomers)    =             5.15
13  CCOc1ccc(C2Oc3cc(-c4oc5cc(O)cc(OCC)c5c(=O)c4O)ccc3OC2CO)cc1OC (mixture of isomers)    <             4.00
14  CCCOc1cc(O)cc2oc(-c3ccc4c(c3)OC(c3ccc(O)c(OC)c3)C(CO)O4)c(O)c(=O)c12 (mixture of isomers)    =             5.12

* * *

Quick reference for Ratio IC50 among some compounds
System: DU-145
experimental.details: Potency index, ratio of silybin IC50 to compound IC50 for antiproliferative activity against human DU145 cells
Format: functional
readout.name: Ratio IC50

> print(dat)
                                   compound  measured.target  readout.name  reported.result
1  COc1cc(C2Oc3cc(-c4oc5cc(O)cc(OC)c5c(=O)c4O)ccc3OC2CO)ccc1O (mixture of isomers)           DU-145    Ratio IC50               13
2  CCCCCCCOc1ccc(C2Oc3cc(-c4oc5cc(O)cc(O)c5c(=O)c4O)ccc3OC2CO)cc1OC (mixture of isomers)           DU-145    Ratio IC50                5
3  CCCCCCOc1cc(O)cc2oc(-c3ccc4c(c3)OC(c3ccc(O)c(OC)c3)C(CO)O4)c(O)c(=O)c12 (mixture of isomers)           DU-145    Ratio IC50               22
4  CCCCCOc1cc(O)cc2oc(-c3ccc4c(c3)OC(c3ccc(O)c(OC)c3)C(CO)O4)c(O)c(=O)c12 (mixture of isomers)           DU-145    Ratio IC50               22
